src = patent US20250152746A1

Test system: ANGPTL3 gene
Test: ANGPTL3 gRNA/SpCas9 editing in primary human hepatocytes (Table 3)
Format: cell-based
Exercise: state measured Human Primary Hepatocyte Editing % 500 ng/mL for each of the molecules provided.
Numbers only, in %.

GA116: ANGPTL3 gRNA; protospacer GTAGAATTTTTTCTTCTAGG (SEQ ID NO: 114) (nucleic acid, 2'-O-methyl at 1, 2, other sugars, backbone and T or U not given here; further chemistry not fully specified) guide: GUAGAATTTTTTCTTCTAGGGTTTTAGAGCTAGAAATAGCAAGTTAAAATAAGGCTAGTCCGTTATCAACTTGAAAAAGTGGCACCGAGTCGGTGCTTTT :: 16.33

What value of Human Primary Hepatocyte Editing % 500 ng/mL has been reported for the following molecule? GA113: ANGPTL3 gRNA; protospacer ATTCTGGAGGAAATAACTAG (SEQ ID NO: 111) (nucleic acid, 2'-O-methyl at 1, 2, other sugars, backbone and T or U not given here; further chemistry not fully specified) guide: AUTCTGGAGGAAATAACTAGGTTTTAGAGCTAGAAATAGCAAGTTAAAATAAGGCTAGTCCGTTATCAACTTGAAAAAGTGGCACCGAGTCGGTGCTTTT
19.97
